Molecular target: human lysosomal β-galactosidase (β-Gal) (Homo sapiens)
Construct: in leukocytes isolated from healthy donors (controls); endogenous in cells; host or cells: human leukocytes from healthy donors, disrupted by sonication (crude homogenate)
Sequence (P16278 29-677): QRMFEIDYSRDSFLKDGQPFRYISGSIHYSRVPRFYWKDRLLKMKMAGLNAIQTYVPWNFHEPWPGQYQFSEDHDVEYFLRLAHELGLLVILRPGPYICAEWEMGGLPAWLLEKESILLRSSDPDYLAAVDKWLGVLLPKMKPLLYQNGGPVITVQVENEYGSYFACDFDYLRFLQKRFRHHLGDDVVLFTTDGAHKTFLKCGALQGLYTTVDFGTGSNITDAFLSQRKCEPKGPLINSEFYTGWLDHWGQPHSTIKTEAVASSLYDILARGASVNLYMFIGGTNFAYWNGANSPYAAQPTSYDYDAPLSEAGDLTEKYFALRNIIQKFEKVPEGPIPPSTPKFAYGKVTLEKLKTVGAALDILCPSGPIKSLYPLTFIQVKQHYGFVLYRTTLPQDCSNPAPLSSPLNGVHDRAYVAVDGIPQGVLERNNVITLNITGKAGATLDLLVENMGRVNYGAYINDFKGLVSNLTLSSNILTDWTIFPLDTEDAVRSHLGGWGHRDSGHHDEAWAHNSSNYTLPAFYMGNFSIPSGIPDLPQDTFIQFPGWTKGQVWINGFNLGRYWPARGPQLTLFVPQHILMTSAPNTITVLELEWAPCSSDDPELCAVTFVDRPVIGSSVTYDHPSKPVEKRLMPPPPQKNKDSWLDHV
Experiment: β-Gal inhibition in human leukocyte homogenates
Type: biochemical
Conditions: compounds 1 mM; human leukocytes extracts
Experimental: The new compounds were screened at 1 mM concentration towards β-galactosidase (β-Gal) and β-glucosidase (GCase) in leukocytes isolated from healthy donors (controls). Isolated leukocytes were disrupted by sonication, and a Micro BCA Protein Assay Kit (Sigma–Aldrich, St. Louis, MO, USA) was used to determine the total protein amount for the enzymatic assay, according to the manufacturer’s instructions. β-Gal activity was measured in a flat-bottomed 96-well plate. […]
Classification field: enter YES for inhibition at 1000 µM values not below 4%, NO for values below it.

[
  {
    "smiles.input": "CCCCCCCCCCCCN[C@H]1CNC[C@@H](O)[C@H]1O",
    "category.label": "NO"
  },
  {
    "smiles.input": "CCCCCCCCCO[C@H]1CNC[C@@H](O)[C@H]1O",
    "category.label": "YES"
  },
  {
    "smiles.input": "CCCCCCCCN[C@H]1CNC[C@@H](O)[C@H]1O",
    "category.label": "YES"
  }
]

Lab note: next compound to report on.
Is inhibition at 1000 µM at least 4%? Consider `O[C@@H]1CNC[C@@](O)(CCc2ccccc2)[C@@H]1O` NO

----------
Target: human lysosomal β-glucosidase (GCase) (Homo sapiens, UniProt P04062)
Construct: in leukocytes isolated from healthy donors (controls); endogenous in cells; host or cells: human leukocytes from healthy donors, disrupted by sonication (crude homogenate)
Sequence (P04062 40-536): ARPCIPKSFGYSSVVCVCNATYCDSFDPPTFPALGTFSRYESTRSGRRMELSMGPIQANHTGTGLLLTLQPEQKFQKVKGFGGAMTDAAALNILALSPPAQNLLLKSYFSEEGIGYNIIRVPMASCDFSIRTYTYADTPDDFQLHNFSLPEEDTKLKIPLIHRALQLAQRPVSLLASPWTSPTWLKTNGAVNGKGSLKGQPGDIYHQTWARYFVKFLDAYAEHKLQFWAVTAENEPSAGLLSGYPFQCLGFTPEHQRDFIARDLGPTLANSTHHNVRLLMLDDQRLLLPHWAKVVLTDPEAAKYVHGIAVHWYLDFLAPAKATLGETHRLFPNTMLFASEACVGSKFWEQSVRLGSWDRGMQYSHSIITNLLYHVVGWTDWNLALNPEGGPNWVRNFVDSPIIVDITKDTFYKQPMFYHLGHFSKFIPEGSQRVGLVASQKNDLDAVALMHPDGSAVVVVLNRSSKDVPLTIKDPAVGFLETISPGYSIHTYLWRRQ
Assay: GCase inhibition in human leukocyte homogenates
Assay type: biochemical
Conditions: human leukocytes extracts; 4-methylumbelliferyl-β-D-glucoside 3.33 mM
assay.metric: IC50 (µM)
Please reply with the bare figure in µM and do not write the unit itself.

[
  {
    "smiles.input": "CCCCCCCCCO[C@@H]1CNC[C@@H](O)[C@H]1O",
    "assay.metric": "IC50",
    "uom": "µM",
    "readout.number": 130
  },
  {
    "smiles.input": "CCCCCCCC[C@]1(O)CNC[C@@H](O)[C@H]1O",
    "assay.metric": "IC50",
    "uom": "µM",
    "readout.number": 60
  },
  {
    "smiles.input": "CCCCCCCCCO[C@H]1CNC[C@@H](O)[C@H]1O",
    "assay.metric": "IC50",
    "uom": "µM",
    "readout.number": 12
  }
]

Kindly review the next molecule as well.
Which IC50 is listed for `CCCCCCCCCCCCN[C@H]1CNC[C@@H](O)[C@H]1O` ? 6.4

----------
The reader will find reported inhibition at 1000 µM values listed item by item below.
Biological target: human lysosomal β-glucosidase (GCase) (Homo sapiens, UniProt P04062)
Construct: in leukocytes isolated from healthy donors (controls); endogenous in cells; host or cells: human leukocytes from healthy donors, disrupted by sonication (crude homogenate)
Experiment: GCase inhibition in human leukocyte homogenates
Type: biochemical
Details: compounds 1 mM; human leukocytes extracts
Please reply with the bare figure in % and do not write the unit itself.

[
  {
    "molecule": "O[C@@H]1CNC[C@@](O)(C#Cc2ccccc2)[C@@H]1O [compound 32]",
    "assay.metric": "inhibition at 1000 µM",
    "readout.number": 25
  },
  {
    "molecule": "O[C@@H]1CNC[C@@](O)(CCc2ccccc2)[C@@H]1O [compound 11]",
    "assay.metric": "inhibition at 1000 µM",
    "readout.number": 36
  },
  {
    "molecule": "O[C@@H]1CNC[C@@](O)(CCc2ccsc2)[C@@H]1O [compound 14]",
    "assay.metric": "inhibition at 1000 µM",
    "readout.number": 9
  }
]

Kindly review the next molecule as well.
Which inhibition at 1000 µM is listed for CCCCCCC#C[C@]1(O)CNC[C@@H](O)[C@H]1O [compound 33] ? 65

----------
Target: human lysosomal β-glucosidase (GCase) (Homo sapiens, UniProt P04062)
Construct: in leukocytes isolated from healthy donors (controls); endogenous in cells; host or cells: human leukocytes from healthy donors, disrupted by sonication (crude homogenate)
Assay: GCase inhibition in human leukocyte homogenates
Format: biochemical
Conditions: compounds 1 mM; human leukocytes extracts
assay.metric: inhibition at 1000 µM (%)
Please reply with the bare figure in % and do not write the unit itself.

[
  {
    "smiles.input": "CN(C)c1ccc(CC[C@]2(O)CNC[C@@H](O)[C@H]2O)cc1",
    "inhibition at 1000 µM / %": 6
  }
]

Kindly review the next compound as well.
Which inhibition at 1000 µM is listed for `CC[C@]1(O)CNC[C@@H](O)[C@H]1O` ? 30

----------
Molecular target: human lysosomal β-galactosidase (β-Gal) (Homo sapiens)
Construct: in leukocytes isolated from healthy donors (controls); endogenous in cells; host or cells: human leukocytes from healthy donors, disrupted by sonication (crude homogenate)
Experiment: β-Gal inhibition in human leukocyte homogenates
Assay type: biochemical
Conditions: compounds 1 mM; human leukocytes extracts
assay.metric: inhibition at 1000 µM (%)
Please reply with the bare figure in % and do not write the unit itself.

Recorded results for 4 compounds are shown here.
[
  {
    "smiles.input": "CCCCCCC#C[C@]1(O)CNC[C@@H](O)[C@H]1O",
    "assay.metric": "inhibition at 1000 µM",
    "readout.number": 4
  },
  {
    "smiles.input": "CCCCCCCCCO[C@@H]1CNC[C@@H](O)[C@H]1O",
    "assay.metric": "inhibition at 1000 µM",
    "readout.number": 0
  },
  {
    "smiles.input": "CCCCCCCC[C@]1(O)CNC[C@@H](O)[C@H]1O",
    "assay.metric": "inhibition at 1000 µM",
    "readout.number": 0
  },
  {
    "smiles.input": "O[C@@H]1CNC[C@@](O)(CCc2ccsc2)[C@@H]1O",
    "assay.metric": "inhibition at 1000 µM",
    "readout.number": 16
  }
]

Which inhibition at 1000 µM is listed for `CC[C@]1(O)CNC[C@@H](O)[C@H]1O` ? 3

Try the compound `CN(C)c1ccc(CC[C@]2(O)CNC[C@@H](O)[C@H]2O)cc1` 6

----------
The reader will find reported inhibition at 1000 µM values listed item by item below.
Molecular target: human lysosomal β-glucosidase (GCase) (Homo sapiens, UniProt P04062)
Construct: in leukocytes isolated from healthy donors (controls); endogenous in cells; host or cells: human leukocytes from healthy donors, disrupted by sonication (crude homogenate)
Assay: GCase inhibition in human leukocyte homogenates
Assay type: biochemical
Details: compounds 1 mM; human leukocytes extracts

[
  {
    "compound": "CCCCCCCC[C@]1(O)CNC[C@@H](O)[C@H]1O [compound 12]",
    "inhibition at 1000 µM": "> 90%"
  },
  {
    "compound": "CCCCCCCCCO[C@H]1CNC[C@@H](O)[C@H]1O [compound 9]",
    "inhibition at 1000 µM": "> 90%"
  }
]

Kindly review the next compound as well.
Which inhibition at 1000 µM is listed for CCCCCCCCCCCCN[C@H]1CNC[C@@H](O)[C@H]1O [compound 10] ? > 90%
